measurement.target: T1, rat NGF (rat, UniProt P25427 122-241)
T1 construct: also called rN
T1 sequence (P25427 122-241 limits assumed): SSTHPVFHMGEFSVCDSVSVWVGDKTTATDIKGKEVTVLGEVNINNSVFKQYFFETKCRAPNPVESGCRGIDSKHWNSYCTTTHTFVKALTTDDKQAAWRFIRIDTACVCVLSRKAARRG
experiment.description: SPR (Biacore T200), 100 nM mAb on NGF chip, similarity to parent mAb
experimental.readout: Percent Similarity Score (KD on rN) (%)
Give just the number in %; leave the unit off.

Use the examples below as a reference point.
binder	observed.value
can9L12VH_F29A (antibody, V domains shown) VH: EVQLVESGGDLVKPGGSLRLSCVASGFTASSHGMHWVRQSPGKGLQWVAVINSGGSSTYYTDAVKGRFTISRDNAKNTVYLQMNSLRAEDTAMYYCAKESVGGWEQLVGPHFDYWGQGTLVIVSS VL: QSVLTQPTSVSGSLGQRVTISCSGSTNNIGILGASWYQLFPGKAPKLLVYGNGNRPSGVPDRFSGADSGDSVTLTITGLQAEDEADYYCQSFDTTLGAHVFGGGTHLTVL	99.9
can48L2VH_S56A (antibody, V domains shown, CDR scanning mutant of ZTS-842 (48L2)) VH: EVQLVESGGDLVKPGGSLRLSCVASGFTFSTYGINWVRQAPGKGLQWVAYISSGGASTYYADPVKGRFTISRDDAKNMLYLQMNSLRAEDTAIYYCAGSRYTYAYGGGYEFHFWGQGTLVTVSS VL: QAVLNQPASVSGALGQKVTISCSGSTMDIDIFGVSWYQQLPGKAPKLLVDSDGDRPSGIPDRFSGSRSGNSGTLTITGLQAEDEADYHCQSGDSTLGALAIFGGGTHVTVL	99.8

Given can48L2VL_D28A (antibody, V domains shown, CDR scanning mutant of ZTS-842 (48L2)) VH: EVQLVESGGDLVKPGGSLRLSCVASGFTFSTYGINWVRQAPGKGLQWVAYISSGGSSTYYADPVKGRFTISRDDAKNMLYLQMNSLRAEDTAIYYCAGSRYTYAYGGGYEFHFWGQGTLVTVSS VL: QAVLNQPASVSGALGQKVTISCSGSTMAIDIFGVSWYQQLPGKAPKLLVDSDGDRPSGIPDRFSGSRSGNSGTLTITGLQAEDEADYHCQSGDSTLGALAIFGGGTHVTVL , state its recorded Percent Similarity Score (KD on rN).
97.7
